Recorded TGI values for a group of molecules are listed next.
Test system: SNB-19 CNS
Assay: NCI tumour cell line growth inhibition, 48 h

Example molecules with recorded TGI:
MOLECULE: OC1(c2ccc(Cl)c(C(F)(F)F)c2)CCN(CCCC(c2ccc(F)cc2)c2ccc(F)cc2)CC1
RESULT: 3.86 µM
//
MOLECULE: NS(=O)(=O)c1nnc(NC(=O)N(c2ccccc2)c2ccccc2)s1
RESULT: > 100 µM
//
MOLECULE: COC(=O)/C=C(\C)CC/C=C(\C)CCC1OC1(C)C (stereo not given)
RESULT: > 75 µM
//
MOLECULE: Cc1ccc2c(c1C)C(=O)C1(Cc3cc4c(cc3C1=O)CCC4)C2 (stereo not given)
RESULT: > 100 µM
//
MOLECULE: CCn1c2c(c3ccccc3c1=O)C(=O)c1ccccc1-2
RESULT: > 100 µM

Recorded TGI (molecule Cc1nc(N)nc(CCC(=O)Nc2cccc(C(F)(F)F)c2)c1-c1ccc(Cl)cc1 ): > 100 µM

Lookup result for COc1ccc(C)cc1N1C(=O)C2ON(Cc3ccc(CC(N)=O)cc3)C(c3c4ccccc4c(Cl)c4ccccc34)C2C1=O (stereo not given) ; measured TGI: > 100 µM

Per the record, COC1OC(C)C(NC(=O)OCC(Cl)(Cl)Cl)C2OC(C)(C)OC12 (stereo not given) has TGI of > 100 µM

response.value for O=C1NC(=O)c2c1n(Cc1ccccc1)c(=O)n2Cc1ccccc1 (field: TGI) = > 100 µM

Entry CC1=C(C(=O)Nc2ccccc2)C(c2ccc(N(C)C)cc2)C(C(=O)Nc2ccccc2)=C(C)N1 — recorded TGI = > 100 µM

====

Test system: SF-268 CNS
Test: NCI tumour cell line growth inhibition, 48 h
# TGI values compiled below

Guide cases for TGI, answers given:
COMPOUND: CCOC(=O)c1c(N2CCCC2)[nH]c(=O)c(C(c2ccc(OC)cc2)c2c(O)c(C(=O)OCC)c(N3CCCC3)[nH]c2=O)c1O
TGI: > 100 µM
//
COMPOUND: N#Cc1c(-c2ccc([N+](=O)[O-])cc2)cc(-c2ccc(Nc3ccnc4cc(Cl)ccc34)cc2)[nH]c1=O
TGI: > 100 µM
//
COMPOUND: CCc1ccccc1NC(=O)c1cccc([N+](=O)[O-])c1O
TGI: > 100 µM

Entry under test: CCCCCCCCCCCCCCCCCCOc1ccccc1CC(=O)NCC[N+]1(C)CCOCC1 . Its TGI was 31.2 µM

TGI reading for CN(C)C(=O)C(F)(F)C(c1ccc(F)cc1)C1C(=O)N(C)C(=O)N(C)C1=O (centres undefined) : > 100 µM

Sure, the documented TGI for c1ccc(C2=NC3OC2c2ccccc23)cc1 (centres undefined) is > 10 µM

Looking up O=[N+]([O-])c1ccc(Cl)c2c([N+](=O)[O-])cccc12 , I found its TGI recorded as > 10 µM

Entry Cc1ccc(O)cc1Nc1ccnc2ccc(S(C)(=O)=O)cc12 , TGI reported as > 25 µM

Please fill in: TGI reported for COc1cc2oc(-c3ccc(O)cc3)cc(=O)c2c(O)c1C1OC(CO)C(O)C(O)C1O (centres undefined) = > 100 µM

Lab note: measured TGI of O=c1c2ccccc2sc2c(CO)ccc(NCCN3CCCCC3)c12 was 13.1 µM

Per the records, this compound ( COc1cc(Nc2cnc3ccc(C(F)(F)F)cc3n2)cc(OC)c1OC ) has TGI equal to > 100 µM

COc1ccc2c(c1)c(-c1nc(-c3c[nH]c4ncccc34)cs1)cn2CCCN1CCOCC1 yielded TGI of 10.3 µM

GET /value?item= CC(C)NC(=O)OCc1c(COC(=O)NC(C)C)n(C)c2c1ccc1sccc12 &field=TGI returns 21.5 µM

TGI for CCCCCCCCCCCC[N+]1(CCCCCCCCCCCC)CCCC(C)C1 (centres undefined) is 1.25 µM

Looking up O=C(NCCNCCO)c1ccc2c(c1)oc1cc3ccccc3c(=O)n12 , I found its TGI recorded as > 50 µM

Measured TGI, S=C(Cc1ccc2c(c1)Sc1ccccc1O2)N1CCOCC1 : > 100 µM

Measured TGI of CCCCCCN(CCCCCC)C(=S)N/N=C(\C)c1ccccn1 : 3.52 µM

The compound CSC1=Nc2c(c(C)c(C)n2COC(CO)CO)C2=NC(=O)CN12 showed TGI equal to > 100 µM

Form field TGI, entry Cc1nnc2n(c1=O)CCCN2C : > 100 µM
